Each recorded value in this set is attributed to ChEMBL document CHEMBL3885861.

Record form. Attribute: Plat. Fill in for each entry.
# Species on record: Rattus norvegicus
# Method summary: Open TG-GATES - Regimen: Daily Repeat
# Assay type: toxicity, organism-based, Sprague-Dawley
# Set-up: regimen Daily Repeat, gender Male, age 6 weeks
# Condition description: in vivo, po, 0 mg/kg, […], tissue Blood, route gavage, dose level Control, time 7 day
One number for each entry, in x10_4/uL.

These recorded examples may help you get a feel for the data.
CCO | 127.1
CC(=O)[C@@]1(O)CC[C@H]2[C@@H]3C=C(Cl)C4=CC(=O)CC[C@]4(C)[C@H]3CC[C@@]21C | 112.3
CN(C/C=C/C#CC(C)(C)C)Cc1cccc2ccccc12 | 121.9
CCCCNC(=O)NS(=O)(=O)c1ccc(C)cc1 [TOLBUTAMIDE] | 127.5
NS(=O)(=O)c1cc(C(=O)O)c(NCc2ccco2)cc1Cl [FUROSEMIDE] | 125.8

Parameters: items (list). Returns: Plat for each item.
1. O=c1ccc2ccccc2o1
2. COc1ccc([C@@H]2Sc3ccccc3N(CCN(C)C)C(=O)[C@@H]2OC(C)=O)cc1
3. CCN(CC)C(=S)SSC(=S)N(CC)CC
4. Nc1ccc(Cc2ccc(N)cc2)cc1
5. CN(CCOc1ccc(CC2SC(=O)NC2=O)cc1)c1ccccn1.O=C(O)/C=C\C(=O)O (configuration not stated) [ROSIGLITAZONE MALEATE]
6. CC(S)C(=O)NCC(=O)O (configuration not stated)

A.
108.5
137.2
116.8
137.3
134.6
118.9

Q. Quick one: Plat for O=C(O)c1ccccc1Nc1ccccc1 ?
A. 118.4

====

# Species: Rattus norvegicus
# Method summary: Open TG-GATES - Regimen: Single
# Type: toxicity, organism-based, Sprague-Dawley
# Set-up: regimen Single, gender Male, age 6 weeks
# Condition description: in vivo, po, 0 mg/kg, 9 h, tissue Plasma, route gavage, dose level Control
Measured property: TC (mg/dL)
Answers are plain numbers, in mg/dL.

These recorded examples may help you get a feel for the data.
CN(C)CCCN1c2ccccc2Sc2ccc(Cl)cc21 | 69.8
Nc1ccc(Cc2ccc(N)cc2)cc1 | 77.8
CCN(CC)C(=S)SSC(=S)N(CC)CC | 72.6
COc1ccc([C@@H]2Sc3ccccc3N(CCN(C)C)C(=O)[C@@H]2OC(C)=O)cc1 | 67.2
O=c1ccc2ccccc2o1 | 79.4

Kindly review the next compound as well.
Q. Quick one: TC for CCO ?
A. 74

====

# Species: Rattus norvegicus
# Method summary: Open TG-GATES - Regimen: Single
# Assay type: toxicity, organism-based, Sprague-Dawley
# Set-up: regimen Single, gender Male, age 6 weeks
# Condition description: in vivo, po, 0 mg/kg, 9 h, tissue Blood, route gavage, dose level Control
Record form. Attribute: Ret. Fill in for each entry.
Answers are plain numbers, in %.

These recorded examples may help you get a feel for the data.
CN(C)CCCN1c2ccccc2Sc2ccc(Cl)cc21 [CHLORPROMAZINE] | 8.3
C=C[C@H]1C[N@@]2CC[C@H]1C[C@@H]2[C@@H](O)c1ccnc2ccc(OC)cc12 [QUINIDINE] | 6.9

Kindly review the next compound as well.
Q. Quick one: Ret for COc1cc2ncnc(Nc3ccc(F)c(Cl)c3)c2cc1OCCCN1CCOCC1 [GEFITINIB] ?
A. 9.4
